# Tgt: Progesterone Receptor PR-B (Homo sapiens)
# Construct: expressed in transfected cells; From own knowledge of the cited Fuhrmann et al. 2000: SK-N-MC cells stably transfected with PR-B and an MMTV-luciferase reporter
# Assay info: Agonism of Progesterone Receptor PR-B, transactivation assay
# Assay type: cell-based
# Recorded conditions: PR-B transactivation assay as in Fuhrmann et al.
Parameter: Agonistic activity Efficacy. Scope: all listed entries.
Enter the number, and then the unit.

Use these answered entries as a reference point.
>  <Molecule>
O=C1OCc2cc(NC(=O)C(O)(C#CCO)CC3(c4cc(C(F)(F)F)ccc4F)CC3)ccc21 (racemic) [Example 13]

>  <Tgt>
Progesterone Receptor PR-B (Homo sapiens)

>  <Agonistic activity Efficacy>
7%

$$$$
>  <Molecule>
O=C1OCc2cc(NC(=O)C(O)(C#Cc3ccccc3)CC3(c4cc(C(F)(F)F)ccc4F)CC3)ccc21 (single isomer, unassigned; (-)) [Example 3b]

>  <Tgt>
Progesterone Receptor PR-B (Homo sapiens)

>  <Agonistic activity Efficacy>
2%

$$$$
>  <Molecule>
O=C1OCc2cc(NC(=O)C(O)(C#Cc3ccc(O)cc3)CC3(c4cc(C(F)(F)F)ccc4F)CC3)ccc21 (racemic) [Example 7]

>  <Tgt>
Progesterone Receptor PR-B (Homo sapiens)

>  <Agonistic activity Efficacy>
11%

$$$$

Now examine the next entry.
Notebook: pull reported Agonistic activity Efficacy for Progesterone Receptor PR-B (Homo sapiens), entry CCCC#CC(O)(CC1(c2cc(C(F)(F)F)ccc2F)CC1)C(=O)Nc1ccc2c(c1)COC2=O (racemic) [Example 9]
3%

====

# Tgt: Progesterone Receptor PR-B (Homo sapiens)
# Construct: expressed in transfected cells; From own knowledge of the cited Fuhrmann et al. 2000: SK-N-MC cells stably transfected with PR-B and an MMTV-luciferase reporter
# Sequence (P06401 1-933): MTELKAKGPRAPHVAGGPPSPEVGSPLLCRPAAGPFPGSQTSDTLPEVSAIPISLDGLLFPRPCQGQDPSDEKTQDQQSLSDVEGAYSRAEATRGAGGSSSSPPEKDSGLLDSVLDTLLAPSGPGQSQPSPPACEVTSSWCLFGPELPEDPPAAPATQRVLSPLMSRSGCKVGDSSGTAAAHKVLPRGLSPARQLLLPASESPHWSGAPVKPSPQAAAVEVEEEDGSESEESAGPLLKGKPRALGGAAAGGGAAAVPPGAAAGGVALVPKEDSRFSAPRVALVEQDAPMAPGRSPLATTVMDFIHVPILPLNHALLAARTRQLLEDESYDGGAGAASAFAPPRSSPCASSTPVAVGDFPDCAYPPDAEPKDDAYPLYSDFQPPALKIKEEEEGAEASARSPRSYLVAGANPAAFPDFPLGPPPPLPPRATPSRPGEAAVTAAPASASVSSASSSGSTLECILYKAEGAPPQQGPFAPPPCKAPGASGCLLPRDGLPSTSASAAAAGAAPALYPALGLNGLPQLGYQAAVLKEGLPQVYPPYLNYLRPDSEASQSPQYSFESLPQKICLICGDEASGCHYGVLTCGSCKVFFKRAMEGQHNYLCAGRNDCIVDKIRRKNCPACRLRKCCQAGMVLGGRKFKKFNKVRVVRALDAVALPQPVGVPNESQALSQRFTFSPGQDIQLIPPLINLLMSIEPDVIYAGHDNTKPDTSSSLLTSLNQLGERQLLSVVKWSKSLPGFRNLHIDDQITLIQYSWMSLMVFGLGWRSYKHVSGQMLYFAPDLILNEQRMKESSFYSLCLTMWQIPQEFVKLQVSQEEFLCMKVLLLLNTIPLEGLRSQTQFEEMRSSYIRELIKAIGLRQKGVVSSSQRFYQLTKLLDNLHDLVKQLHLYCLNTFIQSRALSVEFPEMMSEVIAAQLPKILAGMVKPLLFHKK
# Assay info: Antagonism of Progesterone Receptor PR-B, transactivation assay
# Format: cell-based
# Recorded conditions: PR-B transactivation assay as in WO 02/054064
# Antagonistic activity Efficacy values compiled below
// return numeric value only (unit: %, not printed)

>  <Compound>
O=C1OCc2cc(NC(=O)C(O)(C#Cc3ccc(O)cc3)CC3(c4cc(C(F)(F)F)ccc4F)CC3)ccc21 (racemic)

>  <Antagonistic activity Efficacy [%]>
82

$$$$
>  <Compound>
O=C1OCc2cc(NC(=O)C(O)(C#Cc3ccccc3)CC3(c4cc(C(F)(F)F)ccc4F)CC3)ccc21 (single isomer, unassigned; (-))

>  <Antagonistic activity Efficacy [%]>
97

$$$$

Look up Antagonistic activity Efficacy: CCCC#CC(O)(CC1(c2cc(C(F)(F)F)ccc2F)CC1)C(=O)Nc1ccc2c(c1)COC2=O (racemic)
96

# Antagonistic activity Efficacy lookup, item O=C1OCc2cc(NC(=O)C(O)(C#CCO)CC3(c4cc(C(F)(F)F)ccc4F)CC3)ccc21 (racemic)
92

====

# Tgt: Progesterone Receptor PR-B (Homo sapiens)
# Construct: From own knowledge of the cited Fuhrmann et al. 2000: SK-N-MC cells stably transfected with PR-B and an MMTV-luciferase reporter
# Assay info: Antagonism of Progesterone Receptor PR-B, transactivation assay
# Recorded conditions: PR-B transactivation assay as in WO 02/054064; read-out: Antagonistic activity IC50
Catalogue of pIC50 readings, one per entry.
Scale note: pIC50 = -log10(concentration in M).

# annotated cases, reported pIC50 shown
>  <Compound>
CCCC#CC(O)(CC1(c2cc(C(F)(F)F)ccc2F)CC1)C(=O)Nc1ccc2c(c1)COC2=O (racemic) [Example 9]

>  <Value reported>
8.52

$$$$
>  <Compound>
O=C1OCc2cc(NC(=O)C(O)(C#CCO)CC3(c4cc(C(F)(F)F)ccc4F)CC3)ccc21 (racemic) [Example 13]

>  <Value reported>
8.52

$$$$
>  <Compound>
O=C1OCc2cc(NC(=O)C(O)(C#Cc3ccc(O)cc3)CC3(c4cc(C(F)(F)F)ccc4F)CC3)ccc21 (racemic) [Example 7]

>  <Value reported>
8.40

$$$$

Then this compound:
State the recorded pIC50 for this entry: O=C1OCc2cc(NC(=O)C(O)(C#Cc3ccccc3)CC3(c4cc(C(F)(F)F)ccc4F)CC3)ccc21 (single isomer, unassigned; (-)) [Example 3b]
9.40
